- procedure-details: S. cerevisiae growth modulation with rapamycin, primary screen, strain BY4716, OD600, 96 h (AID 1091); note: test concentration not given here
- condition-summary: called active from +8 up or from −8 down
Calls of active or inactive are those of the source.
Write down one outcome, taken from 1 (yes) (active), 0 (no) (inactive)

Reference set, count: 3
| molecule | class |
| --- | --- |
| CC(CCN1CCCc2nc(C)c(C)cc21)=NOC[C@@H](C)[C@H](OCc1ccccc1)C(C)C | 0 (no) |
| Cc1ccc(S(=O)(=O)N[C@@H]2COC(=O)CC=C[C@@H](C)[C@H](NS(=O)(=O)c3ccc(C)cc3)COC(=O)[C@H](C)NC(=O)CC=C[C@H]2C)cc1 | 0 (no) |
| CO[C@H]1COC(=O)CC=C[C@@H](C)COC(=O)[C@H]2CCCN2C(=O)CC=C[C@H]1C | 0 (no) |

Ask | Please share the test call associated with `CC(CCN1CCCc2nc(C)c(C)cc21)=NOC[C@@H](O)COCc1ccco1` .
Reply | 0 (no)

Ask | Kindly provide the recorded test outcome for the following molecule: `COC(=O)CC=C[C@@H](C)[C@@H](C=NOC[C@@H](O)COCc1ccco1)NS(=O)(=O)c1ccc(C)cc1`
Reply | 0 (no)

Ask | Recorded test call requested for `COC(=O)[C@@H]1CC[C@H](C)[C@@H](c2ccc(Br)cc2)N1C[C@@H](O)CN=[N+]=[N-]`
Reply | 0 (no)

Ask | Returns: the outcome recorded for `CO[C@H]1COC(=O)[C@H](CCSC)NC(=O)CC=C[C@@H](C)[C@H](OC)COC(=O)[C@@H](OCc2ccccc2)C=C[C@@H]1C` in this assay.
Reply | 0 (no)

Ask | What was the test verdict on `CC(=O)OC[C@H]1O[C@H](CC=NO[C@H](C)c2cn([C@@H]3COC[C@H]3O)nn2)C=C[C@@H]1OC(C)=O` ?
Reply | 0 (no)

Ask | # fetch the recorded call for `O=C1[C@H]2[C@H]3[C@H](O)[C@H](O)CC(=NOC[C@@H](O)COCc4ccco4)[C@@H]3CC[C@H]2C(=O)N1C1CCCCC1` here
Reply | 0 (no)

Ask | // outcome(item) with item = `CC=CC1=C(CO)[C@H](O)[C@H]2O[C@H]2[C@@H]1O`
Reply | 0 (no)

Ask | Which outcome was assigned to `CCN1C(=O)[C@H]2[C@@H]3C(=CC[C@H]2C1=O)C(=O)[C@H]1O[C@H]1[C@H]3O` in this test?
Reply | 0 (no)

Ask | // param item: `C[C@H]1CC[C@H]2C(=O)N[C@H](Cc3ccccc3)C(=O)N2[C@@H]1c1ccccc1` ; yields the recorded call
Reply | 0 (no)

Ask | Just curious, what result did `CO[C@H]1COC(=O)CCC[C@H](C)[C@H](OC)COC(=O)CC=C[C@@H]1C` get here?
Reply | 0 (no)

Ask | Any idea what this test logged for `CCN1C(=O)[C@H]2[C@H]3[C@H](O)[C@H](O)CC(=NOCC=C(C)CCC=C(C)C)[C@@H]3CC[C@H]2C1=O` ?
Reply | 0 (no)

Ask | Field: outcome | Entry: `CCOC(=O)CCN1C(=O)[C@H]2[C@H]3[C@H](O)[C@H](O)CC(=NNC(=O)OCC)[C@H]3CC[C@H]2C1=O`
Reply | 0 (no)

Ask | Lab log entry: `COc1ccc(COC(=O)NN=C2C[C@@H](O)[C@@H](O)[C@@H]3[C@@H]4C(=O)N([C@@H](C)c5ccccc5)C(=O)[C@@H]4CC[C@@H]23)cc1` — outcome as called in the assay?
Reply | 0 (no)

Ask | Short answer needed: outcome of this test for `CC(C)[C@@H](OCc1ccccc1)[C@H](C)C=NOC[C@@H](O)[C@H]1O[C@@H]2OC(C)(C)O[C@@H]2[C@H]1O` ?
Reply | 0 (no)

Ask | Outcome? `CCN1C(=O)[C@H]2[C@H]3[C@H](O)[C@H](O)CC(=NOC[C@@H](O)[C@H]4O[C@@H]5OC(C)(C)O[C@@H]5[C@H]4O)[C@@H]3CC[C@H]2C1=O`
Reply | 0 (no)

Ask | Hi, sorry to bother you, what did the test record for `C=CC[C@@H]1C=C[C@H](ON=C(C)CCN2CCCc3nc(C)c(C)cc32)[C@@H](CO)O1` ?
Reply | 0 (no)

====

- procedure-details: basal S. cerevisiae growth modulation, no modifier, primary screen, OD600, strain BY4716, 24 h, basal condition (AID 1173)
- condition-summary: OD600, 24 h, called active from +8 up or from −8 down
Calls of active or inactive are those of the source.
Reply using exactly one outcome from active, inactive

| compound | class |
| --- | --- |
| COc1ccc(O[C@H]2C=C[C@@H](C#Cc3ccccc3)O[C@@H]2CO)cc1 | active |
| CC(C)=CCCC(C)=CCON=C1[C@H]2CCn3c(=O)n(-c4ccccc4)c(=O)n3[C@H]2[C@H](O)[C@@H]2O[C@H]12 | inactive |
| CCOC(=O)[C@H](Cc1ccccc1)NC(=O)CCC1CC(OC(=O)NCc2ccc3c(c2)OCO3)CC2(CCCC(COC(=O)NCCCN3CCCC3=O)O2)O1 (stereo partly specified) | inactive |

Ask | Test call for this compound, please: `CC(=O)OC[C@H]1O[C@H](CC=NOC[C@@H](O)COCc2ccco2)C=C[C@@H]1OC(C)=O`
Reply | inactive

Ask | Give the logged outcome of this assay for the following compound: `C[C@@H](c1ccccc1)N1C(=O)[C@H]2[C@H]3[C@H](O)[C@H](O)CC(=NOC[C@@H](O)COCc4ccco4)[C@H]3CC[C@H]2C1=O`
Reply | inactive

Ask | Tell me the assay call for `COc1cccc([C@H]2Oc3ccc(OC)cc3C(=NO[C@@H](C)c3cc(-c4c(C)cc(C)cc4C)no3)[C@@H]2O)c1` please.
Reply | inactive

Ask | Just curious, what result did `O=C1[C@H]2[C@H]3[C@H](O)[C@H](O)CC(=NOCc4ccccc4)[C@@H]3CC[C@H]2C(=O)N1c1cccc(Oc2ccccc2)c1` get here?
Reply | inactive

Ask | Status in this test for COC(=O)[C@H](C)NC(=O)CCC1CC(OC(=O)NCc2cccc3ccccc23)CC2(CCCC(COC(=O)NCc3cccc(C(F)(F)F)c3)O2)O1 (stereo partly specified) ?
Reply | inactive

Ask | Name the outcome recorded for CCOC(=O)[C@H](Cc1ccccc1)NC(=O)CCC1CC(OC(=O)NCc2cccc3ccccc23)CC2(CCCC(COC(=O)NCCc3ccc(Cl)cc3)O2)O1 (stereo partly specified) in the assay.
Reply | inactive

Ask | Which outcome did this test record for the compound `COCC#Cc1ccc([C@@H]2N[C@H](C(=O)O)CC[C@H]2C)cc1` ?
Reply | inactive

====

List of z-score values.
- procedure-details: PSAC antagonists in infected red cells, primary screen, cell-based, P. falciparum Indochina, OD700, 1 h (AID 1154)
- condition-summary: P. falciparum Indochina infected RBC osmotic lysis, higher = more signal, called active from +8 up or from −8 down
I'd appreciate a reply containing only the number, no unit.

| molecule | z-score |
| --- | --- |
| CC(CCN1CCCc2nc(C)c(C)cc21)=NO[C@H](C)c1cn([C@H](CO)Cc2ccccc2)nn1 | 5.14 |
| O=C1[C@H]2[C@H]3[C@H](O)[C@H](O)CC(=NO[C@@H]4O[C@H](CO)[C@@H](O)[C@H](O)[C@H]4O)[C@H]3CC[C@H]2C(=O)N1c1ccc(F)cc1F | 2.95 |
| CC1(C)O[C@H]2OC([C@H](O)CON3C(=O)c4ccccc4C3=O)[C@H](O)[C@H]2O1 (some centres not stated) | -0.36 |
| CC(CCN1CCCc2nc(C)c(C)cc21)=NOC[C@@H](C)[C@H](OCc1ccccc1)C(C)C | 1.25 |
| COC(=O)[C@H](C)NC(=O)CC=C[C@@H](C)[C@@H]1C=C[C@H](O)[C@@H](CO)O1 | -0.488 |
| O=C1C=C[C@@H](O)[C@@H]2[C@@H]3C(=O)N(Cc4ccc5c(c4)OCO5)C(=O)[C@@H]3CC[C@@H]12 | 1.26 |

Ask | Report z-score for `COc1ccc(COC(=O)NN=C2C[C@@H](O)[C@@H](O)[C@@H]3[C@@H]4C(=O)N(Cc5ccccc5)C(=O)[C@@H]4CC[C@@H]23)cc1` please.
Reply | 1.48

====

- System: Inhibin beta A chain (activin A)
- procedure-details: INHBA (activin A) binders on microarrays, primary screen, biochemical, small-molecule microarray, 635 nm fluorescence scan (AID 1107);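 note: mouse activin A protein probed at 4.33 µg/mL on printed slides; score merges bound-protein fluorescence near 667 nm with spot signal-to-noise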
- condition-summary: small-molecule microarray binding, higher = more signal
Entries and their composite z-score
Lab note: write the figure by itself, no unit.

Some compounds with known composite z-score results, for comparison:
| compound | assayed-target | composite z-score |
| --- | --- | --- |
| O=C1[C@H]2[C@H]3[C@H](O)[C@H](O)CC(=NO[C@@H]4O[C@H](CO)[C@@H](O)[C@H](O)[C@H]4O)[C@@H]3CC[C@H]2C(=O)N1C1CCCCC1 | Inhibin beta A chain (activin A) | -0.224 |
| CC(=O)OC[C@H]1O[C@@H](ON=C2[C@H]3CCn4c(=O)n(-c5ccccc5)c(=O)n4[C@H]3[C@H](O)[C@@H]3O[C@H]23)[C@H](OC(C)=O)[C@@H](OC(C)=O)[C@@H]1OC(C)=O | Inhibin beta A chain (activin A) | -0.1 |
| CC(=O)OC[C@H]1O[C@H](CC=NOC[C@@H](O)COCc2ccco2)C=C[C@@H]1OC(C)=O | Inhibin beta A chain (activin A) | 1.14 |
| CC(C)=CCCC(C)=CCON=C1C[C@@H](O)[C@@H](O)[C@@H]2[C@@H]3C(=O)N(c4cccc(Oc5ccccc5)c4)C(=O)[C@@H]3CC[C@H]12 | Inhibin beta A chain (activin A) | 0.657 |
| CO[C@@H]1COC(=O)[C@H](COCc2ccccc2)NC(=O)CC=C[C@@H](C)[C@H](OC)COC(=O)[C@@H](C)NC(=O)CC=C[C@H]1C | Inhibin beta A chain (activin A) | 1.84 |

Let's switch to this compound now.
Ask | Data request, read-out composite z-score, for CC1(C)O[C@H]2OC([C@H](O)CON3C(=O)c4ccccc4C3=O)[C@H](O)[C@H]2O1 (stereo partly specified)
Reply | -0.582
